Every entry's value here was drawn from patent US20260242735A1.

Biological target: human CD33 variant P48M (human, UniProt P20138 18-364)
Sequence (P20138 18-364 P48M limits assumed): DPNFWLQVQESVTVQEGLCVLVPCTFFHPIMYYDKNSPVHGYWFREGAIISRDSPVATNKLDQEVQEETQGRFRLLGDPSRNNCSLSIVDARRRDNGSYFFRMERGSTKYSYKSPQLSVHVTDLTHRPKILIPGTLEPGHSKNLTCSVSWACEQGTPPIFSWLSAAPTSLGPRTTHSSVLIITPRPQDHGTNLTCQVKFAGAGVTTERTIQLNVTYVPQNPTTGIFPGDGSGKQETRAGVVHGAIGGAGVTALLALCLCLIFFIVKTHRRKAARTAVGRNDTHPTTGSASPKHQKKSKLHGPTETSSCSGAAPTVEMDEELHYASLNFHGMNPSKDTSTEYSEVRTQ
Experiment: flow cytometry, IgG on cells expressing the mutant
Please go through the items and note down their Mean % WT Binding.

{"binder": "Refmab #1 (antibody, human IgG1, V domains shown, Tested in IgG format; human IgG1 (Absolute Antibody hP67.6, Cat. No. Ab00283-10.0); also called hP67.6) VH: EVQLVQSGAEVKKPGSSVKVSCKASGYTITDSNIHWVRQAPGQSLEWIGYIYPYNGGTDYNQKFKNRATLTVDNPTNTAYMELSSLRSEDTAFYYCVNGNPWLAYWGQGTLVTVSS VL: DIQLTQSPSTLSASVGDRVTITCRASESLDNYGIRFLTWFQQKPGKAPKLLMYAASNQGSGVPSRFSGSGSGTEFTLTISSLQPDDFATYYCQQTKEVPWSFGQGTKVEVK", "Mean % WT Binding": "110 % of WT"}

Please supply Mean % WT Binding for each of the following items, keeping them in order.
1. Refmab #4 (antibody, human IgG1, V domains shown, Tested in IgG format; human IgG1 Fc silent (PG-LALA)) VH: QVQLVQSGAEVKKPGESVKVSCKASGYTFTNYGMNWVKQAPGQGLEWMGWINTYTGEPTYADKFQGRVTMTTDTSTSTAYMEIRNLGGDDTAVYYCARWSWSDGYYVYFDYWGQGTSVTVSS VL: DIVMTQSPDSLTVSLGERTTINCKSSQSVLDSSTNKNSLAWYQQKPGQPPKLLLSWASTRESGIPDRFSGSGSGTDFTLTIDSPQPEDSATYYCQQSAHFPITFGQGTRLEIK
2. Refmab #3 (antibody, human IgG1, V domains shown, Tested in IgG format; human IgG1 Fc silent (PG-LALA)) VH: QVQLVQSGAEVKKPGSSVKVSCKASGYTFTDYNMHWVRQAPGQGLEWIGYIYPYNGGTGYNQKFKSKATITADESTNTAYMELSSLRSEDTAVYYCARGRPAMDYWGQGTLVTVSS VL: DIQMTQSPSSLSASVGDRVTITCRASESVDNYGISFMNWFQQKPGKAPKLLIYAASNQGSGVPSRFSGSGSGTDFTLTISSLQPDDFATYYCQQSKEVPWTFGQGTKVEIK
3. Refmab #2 (antibody, human IgG1, V domains shown, Tested in IgG format; human IgG1 Fc silent (PG-LALA)) VH: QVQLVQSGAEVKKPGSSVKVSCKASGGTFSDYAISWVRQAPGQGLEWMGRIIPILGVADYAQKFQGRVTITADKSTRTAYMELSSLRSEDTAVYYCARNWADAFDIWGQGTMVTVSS VL: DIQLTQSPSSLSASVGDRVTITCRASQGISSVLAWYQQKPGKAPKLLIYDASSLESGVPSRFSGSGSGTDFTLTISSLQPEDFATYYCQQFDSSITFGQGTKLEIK

*A*
1. 1.3 % of WT
2. 106 % of WT
3. 87.5 % of WT
